Sourced from paper PMC10663500

tgt: T1, mouse programmed cell death protein 1 Fc fusion protein (mPD-1-Fc), mPD-1 C60S (aa 25-167) (Mus musculus, UniProt Q02242, stabilised)
T1 construct: not cleaved; source: Expi293F, purified (Protein A, SEC; dimeric fraction); not shown: Fc (human), C-terminal, kept
assayNotes: SPR; Carterra LSA; Fab from the ammonium sulfate precipitate of the culture supernatant immobilised on a NiHC200M chip; hPD-1 (1-1024 nM) or mPD-1-Fc (4-1024 nM) as analyte, fourfold dilution series, no regeneration; HBS-EP pH 7.4, 25 °C; medians over the spots of a construct, KD = koff/kon
appliedConditions: one partner purified
outcomeMeasure: kon (M⁻¹ s⁻¹)
Quick note: give the figure in M⁻¹ s⁻¹, leave out the unit.

Entry under test: toripalimab Fab L.Q95A (Fab, V domains shown, as the heavy chain of Sm3; light chain of Sm3 with this change; numbers count from the chain's first residue; source: Brevibacillus, culture supernatant (ammonium sulfate precipitate); not shown: 6xHis, C-terminal, kept; 6xHN, C-terminal, kept) VH: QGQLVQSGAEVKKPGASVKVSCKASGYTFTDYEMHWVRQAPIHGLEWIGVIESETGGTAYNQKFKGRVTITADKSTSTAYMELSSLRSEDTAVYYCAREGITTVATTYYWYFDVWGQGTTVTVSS VL: DVVMTQSPLSLPVTLGQPASISCRSSQSIVHSNGNTYLEWYLQKPGQSPQLLIYKVSNRFSGVPDRFSGSGSGTDFTLKISRVEAEDVGVYYCFAGSHVPLTFGQGTKLEIK . Its kon was 39000

Entry under test: toripalimab Fab H.K63A (Fab, V domains shown, heavy chain of Sm3 with this change; numbers count from the chain's first residue; as the light chain of Sm3; source: Brevibacillus, culture supernatant (ammonium sulfate precipitate); not shown: 6xHis, C-terminal, kept; 6xHN, C-terminal, kept) VH: QGQLVQSGAEVKKPGASVKVSCKASGYTFTDYEMHWVRQAPIHGLEWIGVIESETGGTAYNQAFKGRVTITADKSTSTAYMELSSLRSEDTAVYYCAREGITTVATTYYWYFDVWGQGTTVTVSS VL: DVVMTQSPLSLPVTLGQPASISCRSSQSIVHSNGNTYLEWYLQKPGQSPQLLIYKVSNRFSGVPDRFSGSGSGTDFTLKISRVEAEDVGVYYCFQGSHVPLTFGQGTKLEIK . Its kon was 73600
